# assay.explanation: protein stability index of a GFP-peptide fusion (GPS, HEK-293T) (PSI 1-6); higher = more stable;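 further: 24-mer peptide tiles fused after GFP, lentivirally expressed, FACS-sorted into six equal bins by GFP/DsRed ratio, decoded by Illumina sequencing, PSI is the read-weighted mean bin number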
# experimental.setup: treatment: DMSO; c terminus: a fixed tail appended
Label rule, in plain words: protein stability index of 3 and up is true, under 3 is false.

chain="ATKTEPKKLEKYLQKLSALLMTAD [ELOA2]" group_label=false
chain="HECILPFVQVKGNFARLQTCISEL [M1AP]" group_label=false
chain="CFNRSREYQLNDSAAYYLNDLDRI [GNAI1]" group_label=false
chain="TNLKETYRCIREARYTMPSSLLAP [PLK2]" group_label=false
chain="IGCGNFGELRLGKNLYTNEYVAIK [CSNK1G3]" group_label=false
chain="GSPEQLQIPVTDSGRHILEDSCAE [SDE2]" group_label=true
chain="SSCIPKAFGNPKFALQGLPLNCAP [IRX6]" group_label=false
chain="RIVHLQETCDLGKIKPEARRYLEK [NLN]" group_label=true
chain="MMMMGPKEEEQSCEYETRLPGNHS [ZNF232]" group_label=true
chain="LTAKQLIKSIVEASKGCQLGKTEQ [TRIM63]" group_label=false
chain="REHKETCEMDWSDKMEAYNIDETC [TEKT4]" group_label=true
chain="KSVMLQIAATELEKEESRREAEKQ [TNNI2]" group_label=true
chain="VENKEKDSNMPHFQTLQAIVSHFQ [CEP70]" group_label=false
chain="VLEQFLTILPQEIQSRVQELHPES [ZNF263]" group_label=false
chain="PEVLDRESRDRPSCAPSASIPKLK [PWWP2B]" group_label=true
chain="ELERIGPQHQAGSDSLLTGMAFFK [CNOT7]" group_label=true
chain="TRQNGIQTNKPALRAVRQRSEFTL [STX5]" group_label=true
chain="SLYRDIRDIQDENQLLVADVKRLG [STX11]" group_label=true
chain="SRMKFRGNGALSNISDLPFLAENS [LCOR]" group_label=true
chain="LGDRLNVEVDAAPAVDLNQVLNET [KRT33B]" group_label=true
chain="FIYSTWKGRTIYLEDIYVMPEYRG [SAT2]" group_label=true
chain="MPPGLHHQRKYTQSFCGENIMMPM [ZNF207]" group_label=false
chain="SIFYDLPQGSGFCLGQLNLEQRSE [SMAD6]" group_label=true
chain="CAQMLPPNLSPHAPWNYHYHCPGS [TRAF3IP2]" group_label=false
chain="LDPDSKENAQIIYSLAEDTIQGVP [PCDHGA10]" group_label=true

###

# assay.explanation: protein stability index of a GFP-peptide fusion (GPS, HEK-293T) (PSI 1-6); higher = more stable
# experimental.setup: treatment: MLN4924 1 uM, 8 h; c terminus: a fixed tail appended
metric: protein stability index

chain="VYHSYDLPWFRTLSWYFLLCVNYF [CDS1]" metric="protein stability index" experimental_value=2.63
chain="STWSDPSVNISLDNLLPGMQPSKP [CLINT1]" metric="protein stability index" experimental_value=4.25
chain="VIYCLGGYDGLNILNSVEKYDPHT [KLHL12]" metric="protein stability index" experimental_value=2.18
chain="SDPENWDRKLHSRPRKLYKHSSTS [BTBD10]" metric="protein stability index" experimental_value=3.94
chain="KPVDMWACGVILYILLVGYPPFWD [CAMK2D]" metric="protein stability index" experimental_value=3.36
chain="DLSPLLGFWQLPPPATQNTFGNST [PLAGL1]" metric="protein stability index" experimental_value=2.5
chain="LRDHADSNIVIMLVGNKSDLRHLR [RAB11A]" metric="protein stability index" experimental_value=2.18
chain="VEEILDRENKRMADSLASKVTRLK [BET1L]" metric="protein stability index" experimental_value=4.52
chain="KNFFKKAAAALFGGKKDKARYIDT [PLK2]" metric="protein stability index" experimental_value=2.4
chain="TLALLLNFLACLASFCVETNNGAG [SCAMP3]" metric="protein stability index" experimental_value=2.88
chain="PPPPMQPTVPSAATSQPTPSQHSA [CCDC6]" metric="protein stability index" experimental_value=5.47
chain="WFLVPISSVICNDITAYLFGFFFG [CDS1]" metric="protein stability index" experimental_value=3.16
chain="SVEYGYRPGATAVPTPLTNVQILL [FCHO1]" metric="protein stability index" experimental_value=2.03
chain="GGDEVDDSVSVNDIDLSLYIPRDV [ZC3H15]" metric="protein stability index" experimental_value=4.45
chain="HIKEILITAGGENVPPIPVETLVK [ACSBG2]" metric="protein stability index" experimental_value=2.88
chain="SSSVETGPSVSEPPGLPRVSAYVD [SPATS1]" metric="protein stability index" experimental_value=4.72
chain="ILDSLLFFYDCSNNPISEHFHPTV [TENT5C]" metric="protein stability index" experimental_value=3.13
chain="QAYLDDCHRRYSCAHCRAHLANHD [YPEL3]" metric="protein stability index" experimental_value=2.45
chain="PAPAPLVPQDPDLEEEEEEEDLVL [ZBTB22]" metric="protein stability index" experimental_value=5.69
chain="RGDSGRLGLGTRESHSCPQQVPMP [NEK8]" metric="protein stability index" experimental_value=4.19
chain="IASEPTNKHLFYAEDFSTMDEISE [MATN2]" metric="protein stability index" experimental_value=4.59
chain="VLDCRPYLAFAASNVRGSLNVNLN [DUSP5]" metric="protein stability index" experimental_value=1.99
chain="LQAKALQLIVTARTTRGLDPLFGM [INTS4]" metric="protein stability index" experimental_value=2.59
chain="IRRPVNVPIDIFSEEIRFYQLGEE [KCNA3]" metric="protein stability index" experimental_value=2.75
chain="PEIEKADDHLQQPLQNQKILKRTG [ZNF649]" metric="protein stability index" experimental_value=5.5
chain="LPVETLGPASRMDPESERALQAPH [PBXIP1]" metric="protein stability index" experimental_value=4.84
chain="TEDVGVVCSDKRIPGFKFDNSLIN [LOXL2]" metric="protein stability index" experimental_value=3.75
